Taken from patent EP0409227A2.

- Test system: Hep G2 (2.2.15)-Zellen
- measurement.notes: DNA synthesis of Hep G2 (2.2.15) cells (acid-insoluble radioactivity after 3H-thymidine or 3H-deoxyadenosine)
- Format: cell-based, menschlichen
- experimental.context: nucleoside 1,0 µM; 4 days, then 24 h label; mean ± SD of five experiments
Decision: ^3H-DNA >= 10000 dpm/Kultur yields true (1), all other cases yield false (0).

- compound: "Cc1cn([C@H]2C[C@H](Cl)[C@@H](CO)O2)c(=O)nc1N [2′,3′-Didesoxy-3′chlor-5-methylcytidin, 3′-Chlor-2′,3′-didesoxy-5-methylcytidin]"
  assigned.category: "true (1)"
- compound: "Nc1nc(N)c2ncn([C@H]3C[C@H](F)[C@@H](CO)O3)c2n1"
  assigned.category: "true (1)"
- compound: "Nc1ccn([C@H]2C=C[C@@H](CO)O2)c(=O)n1 [2',3'-Didehydro-2',3'-didesoxycytidin]"
  assigned.category: "true (1)"
- compound: "Cc1cn([C@H]2C[C@H](N)[C@@H](CO)O2)c(=O)nc1N [2′,3′-Didesoxy-3′-amino-5-methylcytidin]"
  assigned.category: "false (0)"
